# target_of_assay: D(3) dopamine receptor (Homo sapiens)
# Sequence (P35462 whole entry): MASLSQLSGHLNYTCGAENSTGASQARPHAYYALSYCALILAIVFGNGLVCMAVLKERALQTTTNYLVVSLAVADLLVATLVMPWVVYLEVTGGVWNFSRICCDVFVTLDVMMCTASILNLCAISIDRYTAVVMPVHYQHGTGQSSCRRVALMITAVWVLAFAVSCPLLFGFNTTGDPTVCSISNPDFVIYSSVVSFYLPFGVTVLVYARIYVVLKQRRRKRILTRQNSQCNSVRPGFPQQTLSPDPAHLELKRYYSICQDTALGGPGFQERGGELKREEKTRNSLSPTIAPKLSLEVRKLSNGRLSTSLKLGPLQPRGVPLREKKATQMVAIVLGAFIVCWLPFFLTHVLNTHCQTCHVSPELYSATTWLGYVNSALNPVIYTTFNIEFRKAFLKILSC
# assay_text: Displacement of [3H]-Spiperone from human recombinant dopamine D3 receptor expressed in CHO cells
pKi: −log10 of the molar value.
This listing pairs compounds with measured pKi.

Before answering, review these 2 worked examples.
>>> print(df.to_string())
                             item_smiles  assay_result
0  Cc1ccc(CN2CCO[C@H](CSc3ccccc3)C2)cc1C        < 5.00
1  Clc1ccc(CN2CCO[C@H](CSc3ccccc3)C2)cc1        < 5.00

From here, focus on the item given below.
Reported pKi of Fc1ccc2c(CN3CCO[C@H](COc4cccc(Cl)n4)C3)c[nH]c2c1 : < 5.00

###

# assay_text: Fraction unbound in human plasma by equilibrium dialysis method
# Format: ADME, cell-free
Threshold rule: Fu greater than or equal to 0.01 is T; below that, F.

The examples below pair each entry with its known result.
>>> print(df.to_string())
                                item_smiles  assigned_label
0    Fc1cc(CN2CCO[C@H](COc3ccccc3)C2)ccc1Cl               F
1  c1ccc(OC[C@@H]2CN(Cc3ccc4[nH]ccc4c3)CCO2)cc1               T
2  COc1ccc(CN2CCO[C@H](COc3cccc(F)c3)C2)cc1Cl               F

Check if Fu >= 0.01 (inclusive). Item: Fc1cc(CN2CCO[C@H](COc3ccccc3)C2)ccc1C(F)(F)F F

Check if Fu >= 0.01 (inclusive). Item: Cn1ncc2cc(CN3CCO[C@H](COc4ccccc4)C3)ccc21 T

Check if Fu >= 0.01 (inclusive). Item: COc1ccc2c(CN3CCO[C@H](COc4ccccc4)C3)c[nH]c2c1 T

Check if Fu >= 0.01 (inclusive). Item: Fc1ccc2c(CN3CCO[C@H](COc4ccccc4)C3)c[nH]c2c1 T

Check if Fu >= 0.01 (inclusive). Item: COc1ccc(CN2CCO[C@H](COc3ccccc3)C2)cc1F T

###

# target_of_assay: D(4) dopamine receptor (Homo sapiens, UniProt P21917)
# assay_text: Displacement of [3H]-Spiperone from human recombinant dopamine D4 receptor expressed in CHOK1 cells
This listing pairs compounds with measured pKi.
Convention used: pKi is expressed as -log10 of the molar concentration.

Before answering, review these 2 worked examples.
                                item_smiles  assay_result
0  c1ccc(OC[C@@H]2CN(Cc3cccc4cc[nH]c34)CCO2)cc1          7.43
1  COc1cccc(OC[C@@H]2CN(Cc3ccc(Cl)cc3)CCO2)c1          7.44

Reported pKi of COc1ccc(CN2CCO[C@H](COc3ccccc3)C2)cc1Cl : 7.98

###

This listing pairs compounds with measured Ki.
# target_of_assay: D(4) dopamine receptor (Homo sapiens)
# Sequence (P21917 whole entry): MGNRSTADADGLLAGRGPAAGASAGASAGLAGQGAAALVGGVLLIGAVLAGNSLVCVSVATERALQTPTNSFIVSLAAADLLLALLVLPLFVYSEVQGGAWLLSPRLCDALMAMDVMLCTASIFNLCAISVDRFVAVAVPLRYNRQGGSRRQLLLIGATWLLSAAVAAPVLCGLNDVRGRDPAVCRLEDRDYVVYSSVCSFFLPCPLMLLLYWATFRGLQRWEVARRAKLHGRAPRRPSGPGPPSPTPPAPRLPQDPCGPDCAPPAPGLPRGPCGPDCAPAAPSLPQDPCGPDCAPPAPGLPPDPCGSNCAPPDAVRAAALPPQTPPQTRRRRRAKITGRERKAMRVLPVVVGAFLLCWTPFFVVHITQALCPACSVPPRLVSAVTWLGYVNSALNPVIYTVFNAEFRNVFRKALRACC
# assay_text: Displacement of [3H]-Spiperone from human recombinant dopamine D4 receptor expressed in CHOK1 cells
Numbers only; they are read as µM.

Reported Ki of Clc1ccc2[nH]cc(CN3CCO[C@H](COc4ccccc4)C3)c2c1 : 0.037

Reported Ki of Fc1ccc(CN2CCO[C@H](COc3ccccc3)C2)cc1C(F)(F)F : 0.089

Reported Ki of Fc1cc(CN2CCO[C@H](COc3ccccc3)C2)ccc1Cl : 0.0191
